EC50 by entry:
# system_under_test: human orexin type 2 receptor (hOX2R) (Homo sapiens)
# Construct: expressed in transfected cells
# protocol: Measurement of orexin type 2 receptor agonist activity (FLIPR calcium fluorescence)
# Format: cell-based
# test_conditions: CHO cells expressing hOX2R, FLIPR calcium fluorescence; read-out: hOx2 pEC50 (converted)

Q) Entry under review: [2H]C([2H])([2H])C([2H])([2H])NC(=O)N1CC2(CC2)[C@H](NS(C)(=O)=O)[C@@H]1Cc1cccc(-c2ccccc2)c1OC . Reported EC50?
A) 10 to 100 nM

Q) Entry under review: CS(=O)(=O)N[C@@H]1[C@H](Cc2cc(F)cc(-c3ccccc3)c2F)N(C(=O)[C@H]2CCO2)CC12CC2 . Reported EC50?
A) 1 to 10 nM

Q) Entry under review: CS(=O)(=O)N[C@@H]1[C@H](Cc2cccc(-c3ccccc3)c2F)N(C(=O)N2CCC2)CC12CC2 . Reported EC50?
A) 1 to 10 nM

Q) Entry under review: O=C([C@H]1CCO1)N1CC2(CC2)[C@H](NS(=O)(=O)CF)[C@@H]1Cc1cc(F)cc(-c2ccccc2)c1F . Reported EC50?
A) 0.0794 to 1 nM

Q) Entry under review: C[C@H](CO)NC(=O)N1CC2(CC2)[C@H](NS(=O)(=O)C(F)F)[C@@H]1Cc1cccc(-c2ccccc2)c1F . Reported EC50?
A) 0.0794 to 1 nM

Q) Entry under review: CS(=O)(=O)N[C@H]1[C@@H](Cc2cccc(-c3cc(F)cc(F)c3)c2F)N(C(=O)N2CCC2)CC12CC2 . Reported EC50?
A) 10 to 100 nM

====

# system_under_test: human orexin type 2 receptor (hOX2R) (Homo sapiens, UniProt O43614)
# Construct: expressed in transfected cells
# protocol: Measurement of orexin type 2 receptor agonist activity (FLIPR calcium fluorescence)
# Type: cell-based
# test_conditions: CHO, CHO cells expressing hOX2R, FLIPR calcium fluorescence; read-out: hOx2 Emax (%)
Emax by entry:

Q) Entry under review: COC1(CNC(=O)N2CC3(CC3)[C@H](NS(=O)(=O)CF)[C@@H]2Cc2cccc(-c3ccccc3)c2F)CC1 . Reported Emax?
A) 90 to 100%

Q) Entry under review: CS(=O)(=O)N[C@@H]1[C@H](Cc2cccc(-c3cccc(F)c3)c2F)N(C(=O)N2CCC2)CC12CC2 . Reported Emax?
A) 90 to 100%

====

# system_under_test: human orexin type 2 receptor (hOX2R) (Homo sapiens, UniProt O43614)
# Construct: expressed in transfected cells
# Sequence (O43614 1-444): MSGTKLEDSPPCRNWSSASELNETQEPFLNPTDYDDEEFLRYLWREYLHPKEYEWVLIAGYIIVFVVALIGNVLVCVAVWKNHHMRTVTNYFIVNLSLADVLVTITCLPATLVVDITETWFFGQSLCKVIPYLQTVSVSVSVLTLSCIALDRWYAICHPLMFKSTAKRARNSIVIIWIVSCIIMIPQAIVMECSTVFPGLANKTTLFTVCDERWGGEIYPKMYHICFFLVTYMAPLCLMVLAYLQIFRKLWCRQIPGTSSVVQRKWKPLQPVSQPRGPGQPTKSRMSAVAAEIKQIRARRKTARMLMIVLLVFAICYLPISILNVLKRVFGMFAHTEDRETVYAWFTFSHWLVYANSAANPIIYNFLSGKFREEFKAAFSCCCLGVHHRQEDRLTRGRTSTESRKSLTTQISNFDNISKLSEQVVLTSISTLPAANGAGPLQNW
# protocol: Measurement of orexin type 2 receptor agonist activity (FLIPR calcium fluorescence)
# Assay type: cell-based
# test_conditions: CHO cells expressing hOX2R, FLIPR calcium fluorescence; read-out: hOx2 pEC50 (converted)
quantity: EC50

In the examples that follow, each entry is paired with its recorded EC50.
INSERT INTO assay_data (compound, system_under_test, quantity, result) VALUES
  ('CS(=O)(=O)N[C@@H]1[C@H](Cc2cccc(-c3cc(F)cc(F)c3)c2F)N(C(=O)N2CCC2)CC12CC2', 'human orexin type 2 receptor (hOX2R) (Homo sapiens, UniProt O43614)', 'EC50', '0.0794 to 1 nM'),
  ('O=C([C@H]1CCO1)N1CC2(CC2)[C@H](NS(=O)(=O)C2CC2)[C@@H]1Cc1cc(F)cc(-c2cc(F)cc(F)c2)c1F', 'human orexin type 2 receptor (hOX2R) (Homo sapiens, UniProt O43614)', 'EC50', '1 to 10 nM'),
  ('O=C(C1CCC1)N1CC2(CC2)C(NS(=O)(=O)CF)C1Cc1cccc(-c2ccccc2)c1F (racemic)', 'human orexin type 2 receptor (hOX2R) (Homo sapiens, UniProt O43614)', 'EC50', '0.0794 to 1 nM'),
  ('COC1(C(=O)N2CC3(CC3)[C@H](NS(=O)(=O)CF)[C@@H]2Cc2cccc(-c3ccccc3)c2F)CC1', 'human orexin type 2 receptor (hOX2R) (Homo sapiens, UniProt O43614)', 'EC50', '1 to 10 nM'),
  ('CS(=O)(=O)N[C@@H]1[C@H](Cc2cc(F)cc(-c3cccc(F)c3)c2F)N(C(=O)[C@H]2CCO2)CC12CC2', 'human orexin type 2 receptor (hOX2R) (Homo sapiens, UniProt O43614)', 'EC50', '0.0794 to 1 nM'),
  ('COC[C@H](O)C(=O)N1CC2(CC2)[C@H](NS(=O)(=O)C(F)F)[C@@H]1Cc1cccc(-c2ccccc2)c1F', 'human orexin type 2 receptor (hOX2R) (Homo sapiens, UniProt O43614)', 'EC50', '1 to 10 nM'),
  ('CS(=O)(=O)N[C@@H]1[C@H](Cc2cccc(-c3cc(F)cc(F)c3)c2F)N(C(=O)C2CCC2)CC12CC2', 'human orexin type 2 receptor (hOX2R) (Homo sapiens, UniProt O43614)', 'EC50', '0.0794 to 1 nM'),
  ('O=C([C@H]1CCO1)N1CC2(CC2)[C@H](NS(=O)(=O)C(F)F)[C@@H]1Cc1cccc(-c2cc(F)ccc2F)c1F', 'human orexin type 2 receptor (hOX2R) (Homo sapiens, UniProt O43614)', 'EC50', '1 to 10 nM');

Q) Entry under review: O=C([C@H]1CCO1)N1CC2(CC2)[C@H](NS(=O)(=O)CF)[C@@H]1Cc1cccc(-c2cccc(C(F)(F)F)c2)c1F . Reported EC50?
A) 10 to 100 nM

Q) Entry under review: [2H]c1c([2H])c([2H])c(-c2cccc(C[C@H]3[C@@H](NS(=O)(=O)CF)C4(CC4)CN3C(=O)[C@H]3CCO3)c2F)c([2H])c1[2H] . Reported EC50?
A) 1 to 10 nM

Q) Entry under review: CCS(=O)(=O)N[C@@H]1[C@H](Cc2cccc(-c3ccccc3)c2F)N(C(=O)[C@H]2CCO2)CC12CC2 . Reported EC50?
A) 1 to 10 nM

Q) Entry under review: CS(=O)(=O)N[C@@H]1[C@H](Cc2cccc(-c3ccccc3)c2)N(C(=O)[C@H]2CCO2)CC12CC2 . Reported EC50?
A) 10 to 100 nM

Q) Entry under review: COC[C@@H](C)N(C)C(=O)N1CC2(CC2)[C@H](NS(C)(=O)=O)[C@@H]1Cc1cccc(-c2ccccc2)c1F . Reported EC50?
A) 1 to 10 nM

====

# system_under_test: human orexin type 2 receptor (hOX2R) (Homo sapiens)
# Construct: expressed in transfected cells
# Sequence (O43614 1-444): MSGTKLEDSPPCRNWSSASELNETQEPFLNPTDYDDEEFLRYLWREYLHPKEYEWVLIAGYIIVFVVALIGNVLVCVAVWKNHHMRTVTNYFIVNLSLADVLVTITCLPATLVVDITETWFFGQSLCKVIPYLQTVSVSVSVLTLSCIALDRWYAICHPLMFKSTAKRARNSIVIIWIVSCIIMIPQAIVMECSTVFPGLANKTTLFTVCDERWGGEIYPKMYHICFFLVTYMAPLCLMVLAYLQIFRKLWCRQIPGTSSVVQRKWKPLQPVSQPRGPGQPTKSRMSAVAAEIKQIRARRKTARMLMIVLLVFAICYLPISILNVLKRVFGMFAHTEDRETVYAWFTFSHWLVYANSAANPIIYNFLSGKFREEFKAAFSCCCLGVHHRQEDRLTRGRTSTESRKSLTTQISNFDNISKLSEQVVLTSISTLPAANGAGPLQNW
# protocol: Measurement of orexin type 2 receptor agonist activity (FLIPR calcium fluorescence)
# Format: cell-based
# test_conditions: CHO cells expressing hOX2R, FLIPR calcium fluorescence; read-out: hOx2 pEC50 (converted)
EC50 by entry:

In the examples that follow, each entry is paired with its recorded EC50.
INSERT INTO measurements (given_smiles, result) VALUES
  ('O=C([C@H]1CCO1)N1CC2(CC2)[C@H](NS(=O)(=O)CF)[C@@H]1Cc1cc(F)cc(-c2cccc(F)c2)c1F', '0.0794 to 1 nM'),
  ('CN(C)S(=O)(=O)N[C@@H]1[C@H](Cc2cccc(-c3ccccc3)c2)N(C(=O)[C@H]2CCO2)CC12CC2', '1 to 10 nM');

Then this molecule:
Q) Entry under review: O=C(NCC1(F)CC1)N1CC2(CC2)[C@H](NS(=O)(=O)C(F)F)[C@@H]1Cc1cc(F)cc(-c2cc(F)cc(F)c2)c1F . Reported EC50?
A) 1 to 10 nM
